# System: ATP;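 also: ATP exposure 15 min at 22 °C before imaging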
# Assay summary: switch fluorescence ratio, 500 uM ATP over buffer (Cy3 cluster intensity, sum of 5 cycles each) (fold (ratio)); higher = stronger signal-on switching upon ATP binding; sequences stand for … in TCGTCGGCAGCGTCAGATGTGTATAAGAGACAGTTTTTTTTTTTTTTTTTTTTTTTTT…TC
# Reported conditions: aptamer strand: ATP DNA aptamer (quencher-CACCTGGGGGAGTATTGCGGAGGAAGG + anchor), 100 nM annealed; ATP concentration: 500 uM
Quantity name: switch fluorescence ratio

>>> numeric_readout("TTTAGTTTTC")
0.991
>>> numeric_readout("CCATTTTTTA")
0.982
>>> numeric_readout("TAGGAATGTT")
0.966
>>> numeric_readout("TTTTTGGGAG")
1.01
>>> numeric_readout("GATTTTAGTT")
0.985
>>> numeric_readout("TTGCGAGGTC")
0.985
>>> numeric_readout("GTATGTAGTG")
0.966
>>> numeric_readout("CCTTGACGGG")
1.18
>>> numeric_readout("GATGTAAGAA")
0.993
>>> numeric_readout("AAAGGGGGTA")
0.986
>>> numeric_readout("TCAATGCATG")
0.983
>>> numeric_readout("TGAATTATTT")
1.02
>>> numeric_readout("ATCGAGGGGA")
0.978
>>> numeric_readout("AGGTAGGCGT")
0.975
>>> numeric_readout("CAGGAGACTA")
0.998
>>> numeric_readout("CACGGATGTT")
1.02
>>> numeric_readout("AGGTTTGCGT")
1.01
>>> numeric_readout("CCTTGAGGGC")
1.34
>>> numeric_readout("GATGGGCACT")
1.05
>>> numeric_readout("TTGGATATTC")
0.997
>>> numeric_readout("GAGGGATAGC")
0.991
>>> numeric_readout("CGTTTAAGTA")
0.973
>>> numeric_readout("AGGTAGCACA")
1.06
>>> numeric_readout("CCTATACGGG")
1.03
>>> numeric_readout("GTCTCAGGTT")
1.04
>>> numeric_readout("ACTTATAATT")
1.02
>>> numeric_readout("CAGGTACATA")
1.06
>>> numeric_readout("TGGTTCCAAA")
0.971
>>> numeric_readout("ATCGTGTTGA")
0.971
>>> numeric_readout("CAATACTATA")
1.11
>>> numeric_readout("ATCCAGT")
1.04
>>> numeric_readout("TATTGGTTGT")
0.999
>>> numeric_readout("ATAGTATATG")
0.979
>>> numeric_readout("TATACTTAGT")
1.03
>>> numeric_readout("ATTTTCGTTG")
0.967
>>> numeric_readout("GATTGTAGTG")
0.993
>>> numeric_readout("TTAAGTGCCC")
1
>>> numeric_readout("GCGCGTCGCA")
1.02
>>> numeric_readout("CGAGGGGCTT")
0.997
>>> numeric_readout("GTTTTGTAAA")
0.975
>>> numeric_readout("AGATGAGTGT")
1
>>> numeric_readout("CATACTCAGA")
1
>>> numeric_readout("ATTTGGGTTA")
1.01
>>> numeric_readout("GGGATGTGTT")
0.964
>>> numeric_readout("GGTGTCGCTA")
0.979
>>> numeric_readout("CGCACCTGTA")
1.04
>>> numeric_readout("GTTACTGGTG")
1.05
>>> numeric_readout("GGGGCTTTAT")
0.992
>>> numeric_readout("TCAGTCCGGA")
1.02
>>> numeric_readout("AATGGCGCGA")
1.02
>>> numeric_readout("AAGAGGGCCT")
1.01
>>> numeric_readout("CGGGTGGTGC")
1.01
>>> numeric_readout("CAGATGTACC")
1.08
>>> numeric_readout("TTTCGCCCCT")
1.1
>>> numeric_readout("CAATGGGGAA")
1
>>> numeric_readout("AATTTTCTGC")
1.01
>>> numeric_readout("TGTATAAGGT")
0.966
>>> numeric_readout("TGACCTGAGA")
1.04
>>> numeric_readout("GGTTCTTGGT")
0.949
>>> numeric_readout("TTTTACACAT")
1.02
>>> numeric_readout("CCAGACGCGG")
1.14
>>> numeric_readout("GCTTTGGTTT")
0.983
>>> numeric_readout("TGAGGTTAAC")
0.957
>>> numeric_readout("CCTATTTTTT")
1.01
>>> numeric_readout("GTAATCGATT")
1.07
>>> numeric_readout("ATTATGCTGC")
0.977
>>> numeric_readout("AAAGATGGGA")
1
>>> numeric_readout("TTAGGGAAGG")
0.993
>>> numeric_readout("TTGTTACACA")
1.05
>>> numeric_readout("ACTTATCGGG")
1
>>> numeric_readout("TACGAATATT")
1.02
>>> numeric_readout("TTTCGGGATT")
1
>>> numeric_readout("CTAGGCTGTA")
1
>>> numeric_readout("CTTTGAATGT")
0.983
>>> numeric_readout("TTGAAGCTGG")
0.975
